Reference source for all entries: patent US10785979B2

Tested on: different harmful plants
assay summary: Pre-emergence comparative tests versus known compounds from WO 2013/064459 A1 (D1)
Assay type: in vivo
test settings: Stellaria media, 320 g a.i./ha, visual scoring after 3 weeks
Assign Herbicidal efficacy against STEME to each entry below.
The number alone won't do; follow it with the unit.

Worked examples follow.
> print(dat)
                                   compound  value.reported
1  CCON=C(C)c1c(Cl)ccc(C(=O)Nc2ncnn2C)c1Cl (single isomer, unassigned) [4-5]             80%
2  CON=C(C)c1c(Cl)ccc(C(=O)Nc2nonc2C)c1Cl (single isomer, unassigned) [6-1]             60%
3  CCCn1nnnc1NC(=O)c1ccc(Cl)c(C(C)=NOCC)c1Cl (single isomer, unassigned) [3-5]            100%

Item under review: CC(=NOCC1CC1)c1c(Cl)ccc(C(=O)Nc2nnnn2C)c1Cl (single isomer, unassigned) [1-8] . Reported Herbicidal efficacy against STEME? 100%

---

System: different harmful plants
assay summary: Post-emergence comparative tests versus known compounds from WO 2013/064459 A1 (D1)
Type: in vivo
test settings: Alopecurus myosuroides, 80 g a.i./ha, visual assessment after about 3 weeks
Assign Herbicidal efficacy against ALOMY to each entry below.
Numbers only, in %.

> print(dat)
                                   molecule            assayed.system  value.units  value.reported
1  CCn1nnnc1NC(=O)c1ccc(Cl)c(C(C)=NOC)c1Cl (single isomer, unassigned)  different harmful plants            %              60
2  CCCn1nnnc1NC(=O)c1ccc(S(C)(=O)=O)c(C(C)=NOC)c1Cl (single isomer, unassigned)  different harmful plants            %              60

For each entry beneath this line, provide reported Herbicidal efficacy against ALOMY.
1. CCON=C(C)c1c(Cl)ccc(C(=O)Nc2ncnn2C)c1Cl (single isomer, unassigned)
2. CC(=NOCC1CC1)c1c(Cl)ccc(C(=O)Nc2nnnn2C)c1Cl (single isomer, unassigned)
3. CCCn1nnnc1NC(=O)c1ccc(S(C)(=O)=O)c(C(C)=NOCC)c1Cl (single isomer, unassigned)

30
70
50
